The reported measurements were obtained from patent US20260193293A1.

Assign Ki to each entry below.
test-target: Sushi domains (SD1/2) protein
experimental-protocol: Fluorescence polarization (FP) competition assay with AJAP-1probe, calculated Ki
Assay type: binding
protocol-conditions: Table 13, peptides for affinity maturation; read-out: Ki (nM) mean ± SEM
Non-standard residues stand in square brackets, D forms with d. Residues, ends and D or L forms follow the SMILES beside them. Sar = CNCC(=O)O
A bare number is not enough; add the unit after it.

Q. Record lookup: for Sushi domains (SD1/2) protein, what Ki belongs to CC[C@H](C)[C@H](NC(=O)[C@H](C)NC(=O)[C@H](Cc1c[nH]c2ccccc12)NC(=O)[C@@H]1CCCN1C(C)=O)C(=O)N[C@H](C(=O)N[C@@H](Cc1c[nH]c2ccccc12)C(=O)NCC(=O)N1CCC[C@H]1C(=O)N[C@H](C(=O)NCC(=O)N[C@@H](CC(=O)O)C(=O)N[C@@H](CCC(=O)O)C(=O)N[C@@H](CC(=O)O)C(N)=O)[C@@H](C)O)C(C)C [PWAIVWGPTGDED] (Ac-PWAIVWGPTGDED-NH2) ?
A. 222 nM

Q. // lookup Ki | system=Sushi domains (SD1/2) protein | key= CC[C@H](C)[C@H](NC(=O)[C@H](Cc1c[nH]c2ccccc12)NC(=O)[C@H](CO)NC(=O)[C@H](CC(=O)O)NC(=O)[C@H](CC(=O)O)NC(=O)[C@H](CCC(=O)O)NC(C)=O)C(=O)N[C@@H](CC(=O)O)C(=O)N[C@@H](Cc1c[nH]c2ccccc12)C(=O)NCC(=O)N1CCC[C@H]1C(=O)N[C@H](C(=O)NCC(=O)N[C@@H](CC(=O)O)C(=O)N[C@@H](CCC(=O)O)C(=O)N[C@@H](CC(=O)O)C(N)=O)[C@@H](C)O [Peptide 29, Ac-EDDSWIDWGPTGDED-NH2] (Ac-EDDSWIDWGPTGDED-NH2)
A. 5.6 nM

Q. // map CC[C@H](C)[C@H](NC(=O)[C@H](Cc1ccccc1)NC(=O)[C@H](CCC(=O)O)NC(=O)[C@@H](NC(=O)[C@H](CCC(=O)O)NC(C)=O)[C@@H](C)O)C(=O)N[C@@H](C)C(=O)N[C@@H](Cc1c[nH]c2ccccc12)C(=O)NCC(=O)N1CCC[C@H]1C(=O)N[C@H](C(=O)N[C@H](C(=O)N[C@@H](CO)C(=O)N[C@@H](CCCNC(=N)N)C(=O)N[C@@H](CCC(=O)O)C(=O)N[C@@H](CC(=O)O)C(N)=O)C(C)C)[C@@H](C)O [ETEFIAWGPTVSRED] (Ac-ETEFIAWGPTVSRED-NH2) to recorded Ki (system: Sushi domains (SD1/2) protein)
A. 148 nM

Q. API: value(readout= Ki, system= Sushi domains (SD1/2) protein, query= CC[C@H](C)[C@H](NC(=O)[C@H](Cc1ccccc1)NC(=O)[C@H](CCC(=O)O)NC(=O)[C@@H](NC(=O)[C@H](CCC(=O)O)NC(C)=O)[C@@H](C)O)C(=O)N[C@@H](C)C(=O)N[C@@H](Cc1c[nH]c2ccccc12)C(=O)N[C@@H](Cc1ccc(O)cc1)C(=O)NCC(=O)N1CCC[C@H]1C(=O)N[C@H](C(=O)NCC(=O)N[C@@H](CC(=O)O)C(=O)N[C@@H](CCC(=O)O)C(=O)N[C@@H](CC(=O)O)C(N)=O)[C@@H](C)O [ETEFIAWYGPTGDED] (Ac-ETEFIAWYGPTGDED-NH2) )
A. 195 nM

Q. Notebook entry, Sushi domains (SD1/2) protein assay: Ki of CC[C@H](C)[C@H](NC(=O)[C@H](Cc1ccc(O)cc1)NC(=O)[C@H](CC(=O)O)NC(=O)[C@H](CC(=O)O)NC(=O)[C@H](CCC(=O)O)NC(C)=O)C(=O)N[C@@H](CC(=O)O)C(=O)N[C@@H](Cc1c[nH]c2ccccc12)C(=O)NCC(=O)N1CCC[C@H]1C(=O)N[C@H](C(=O)N[C@@H](CO)C(=O)N[C@@H](CC(=O)O)C(=O)N[C@@H](CC(=O)O)C(=O)N[C@@H](CC(=O)O)C(N)=O)[C@@H](C)O [Peptide 19] (Ac-EDDYIDWGPTSDDD-NH2) = ?
A. 3.8 nM

Q. Given the entry CC[C@H](C)[C@H](NC(=O)[C@H](Cc1c[nH]c2ccccc12)NC(=O)[C@H](CO)NC(=O)[C@H](CC(=O)O)NC(=O)[C@H](CC(=O)O)NC(=O)[C@H](CCC(=O)O)NC(C)=O)C(=O)N[C@@H](Cc1c[nH]c2ccccc12)C(=O)N[C@@H](Cc1c[nH]c2ccccc12)C(=O)N[C@@H](Cc1ccc(O)cc1)C(=O)NCC(=O)N[C@@H](C)C(=O)N[C@@H](CC(=O)O)C(=O)N[C@H](C(=O)N[C@@H](CC(=O)O)C(N)=O)[C@@H](C)O [Peptide 28] (Ac-EDDSWIWWYGADTD-NH2) , what Ki was observed with Sushi domains (SD1/2) protein?
A. 18 nM

Q. Any idea what Ki came out for CC[C@H](C)[C@H](NC(=O)[C@H](Cc1c[nH]c2ccccc12)NC(=O)[C@H](CC(=O)O)NC(=O)[C@H](CC(=O)O)NC(=O)[C@H](CC(=O)O)NC(=O)[C@H](CCC(=O)O)NC(C)=O)C(=O)N[C@@H](CC(=O)O)C(=O)N[C@@H](Cc1c[nH]c2ccccc12)C(=O)NCC(=O)N1CCC[C@H]1C(=O)N[C@H](C(=O)N[C@@H](CO)C(=O)N[C@@H](CC(=O)O)C(=O)N[C@@H](CC(=O)O)C(=O)N[C@@H](CC(=O)O)C(N)=O)[C@@H](C)O [Peptide 17] (Ac-EDDDWIDWGPTSDDD-NH2) on Sushi domains (SD1/2) protein?
A. 4 nM

Q. API: value(readout=Ki, system=Sushi domains (SD1/2) protein) for record CC[C@H](C)[C@H](NC(=O)[C@H](Cc1ccccc1)NC(=O)[C@H](CCC(=O)O)NC(=O)[C@@H](NC(=O)[C@H](CCC(=O)O)NC(C)=O)[C@@H](C)O)C(=O)N[C@@H](C)C(=O)N[C@@H](Cc1c[nH]c2ccccc12)C(=O)N[C@@H](Cc1ccc(O)cc1)C(=O)N1CCC[C@H]1C(=O)N[C@@H](C)C(=O)N[C@@H](CC(=O)O)C(=O)N[C@H](C(=O)N[C@@H](CC(=O)O)C(N)=O)[C@@H](C)O (Ac-ETEFIAWYPADTD-NH2)
A. 190 nM

Q. Please tell me: Ki of CC(=O)N[C@@H](CCC(=O)O)C(=O)N[C@@H](CC(=O)O)C(=O)N[C@@H](CC(=O)O)C(=O)N[C@@H](CO)C(=O)N[C@@H](CC(=O)O)C(=O)N[C@H](C(=O)N[C@@H](Cc1c[nH]c2ccccc12)C(=O)N[C@@H](Cc1c[nH]c2ccccc12)C(=O)N[C@@H](Cc1ccc(O)cc1)C(=O)N(C)CC(=O)N[C@@H](C)C(=O)N[C@@H](CC(=O)O)C(=O)N[C@H](C(=O)N[C@@H](CC(=O)O)C(N)=O)[C@@H](C)O)C(C)C (Ac-EDDSDVWWY[Sar]ADTD-NH2) , system Sushi domains (SD1/2) protein?
A. 201 nM
